Where these numbers come from: patent US20040086502A1

Entries and their measured koff follow.
Target: T1, VEGF(8-109) (UniProt P15692 214-315)
T1 construct: range 8-109; Covalently coupled to the BIACORE chip (EDC/NHS); also called vascular endothelial growth factor
T1 sequence (looked up): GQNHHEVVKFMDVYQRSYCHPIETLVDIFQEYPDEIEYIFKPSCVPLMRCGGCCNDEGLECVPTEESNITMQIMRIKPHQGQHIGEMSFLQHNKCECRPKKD
Assay: SPR (BIACORE-2000), Fab injected over immobilised VEGF(8-109), 25 C

Please review the following examples before continuing.
# binder, valueType, experimentalResult
records = [
    ("Y0261-6 Fab (Fab, V domains shown) VH: EVQLVESGGGLVQPGGSLRLSCAASGYTFTNYGMNWVRQAPGKGLEWVGWINTYTGEPTYAADFKRRFTFSLDTSKSTAYLQMNSLRAEDTAVYYCAKYPHYYLKDKKSHWYFDVWGQGTL VL: DIQLTQSPSSLSASVGDRVTITCRANEQLSNYLNWYQQKPGKAPKVLIYFTSSLHSGVPSRFSGSGSGTDFTLTISSLQPEDFATYYCQQYSTVPWTFGQGTKVEIKR", "koff", "2.5e-05 s⁻¹"),
    ("Y0239-9 Fab (Fab, V domains shown, Only three residues stand in place of G104, although the library was designed with four or five) VH: EVQLVESGGGLVQPGGSLRLSCAASGYTFTNYGMNWVRQAPGKGLEWVGWINTYTGEPTYAADFKRRFTFSLDTSKSTAYLQMNSLRAEDTAVYYCAKYPHYYLGESSHWYFDVWGQGTL VL: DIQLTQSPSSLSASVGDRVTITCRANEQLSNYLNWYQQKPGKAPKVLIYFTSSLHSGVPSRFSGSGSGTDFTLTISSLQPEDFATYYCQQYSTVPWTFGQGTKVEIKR", "koff", "1.9e-05 s⁻¹"),
]

What koff value was documented for this binder, Y0241-7 Fab (Fab, V domains shown, Clone from library YC-86, made on the Y0192 template; The text names point mutations only at T28 and F29; The printed stretch ends in GIN, so residue 34 may also differ from the parent; this change is not applied here) VH: EVQLVESGGGLVQPGGSLRLSCAASGYDWTNYGINWVRQAPGKGLEWVGWINTYTGEPTYAADFKRRFTFSLDTSKSTAYLQMNSLRAEDTAVYYCAKYPHYYGSSHWYFDVWGQGTL VL: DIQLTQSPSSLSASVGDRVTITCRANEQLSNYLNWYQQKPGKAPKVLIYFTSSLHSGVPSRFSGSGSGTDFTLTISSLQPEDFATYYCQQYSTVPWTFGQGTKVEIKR ?
0.000128 s⁻¹
